system: PARP3FL (Homo sapiens, UniProt Q9Y6F1)
Sequence (Q9Y6F1 1-533): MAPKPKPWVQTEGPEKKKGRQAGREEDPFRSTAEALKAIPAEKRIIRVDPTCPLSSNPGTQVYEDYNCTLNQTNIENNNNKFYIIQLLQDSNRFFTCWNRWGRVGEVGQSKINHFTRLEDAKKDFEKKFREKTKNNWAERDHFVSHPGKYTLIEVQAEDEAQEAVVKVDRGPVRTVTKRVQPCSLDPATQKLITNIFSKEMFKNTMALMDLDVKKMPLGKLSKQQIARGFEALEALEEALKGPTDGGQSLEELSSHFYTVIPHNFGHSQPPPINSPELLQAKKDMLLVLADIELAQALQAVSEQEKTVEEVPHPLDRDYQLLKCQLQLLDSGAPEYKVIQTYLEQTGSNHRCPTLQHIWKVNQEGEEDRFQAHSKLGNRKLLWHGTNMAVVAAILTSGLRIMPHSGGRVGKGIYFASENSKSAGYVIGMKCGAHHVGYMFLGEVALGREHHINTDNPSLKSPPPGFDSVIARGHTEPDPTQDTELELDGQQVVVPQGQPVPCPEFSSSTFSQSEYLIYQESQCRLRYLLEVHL
assay-name: ADP-ribosylation plate assay, PARP3FL
property-name: IC50 (nM)

{"compound-string": "N#Cc1ccc(N2CCN(C(=O)c3cc(Cc4n[nH]c(=O)c5ccccc45)ccc3F)CC2)nc1", "property-name": "IC50", "scale-unit": "nM", "result-number": 320}

###

Target protein (sequence): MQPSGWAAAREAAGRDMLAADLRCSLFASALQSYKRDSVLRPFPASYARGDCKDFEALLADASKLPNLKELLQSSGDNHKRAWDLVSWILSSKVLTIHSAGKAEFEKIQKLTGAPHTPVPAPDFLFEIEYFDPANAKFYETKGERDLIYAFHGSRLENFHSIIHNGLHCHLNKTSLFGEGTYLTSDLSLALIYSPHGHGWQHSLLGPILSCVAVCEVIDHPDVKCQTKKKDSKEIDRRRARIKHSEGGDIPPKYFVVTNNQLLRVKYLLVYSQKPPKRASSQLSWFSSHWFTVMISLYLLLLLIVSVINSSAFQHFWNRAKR
pIC50: −log10 of the molar value.

{"compound-string": "N#Cc1ccc(N2CCN(C(=O)c3cc(Cc4n[nH]c(=O)c5ccccc45)ccc3F)CC2)nc1", "pIC50": 5.37}

###

system: UniProtKB Q7Z3E1
Sequence (Q7Z3E1 whole entry): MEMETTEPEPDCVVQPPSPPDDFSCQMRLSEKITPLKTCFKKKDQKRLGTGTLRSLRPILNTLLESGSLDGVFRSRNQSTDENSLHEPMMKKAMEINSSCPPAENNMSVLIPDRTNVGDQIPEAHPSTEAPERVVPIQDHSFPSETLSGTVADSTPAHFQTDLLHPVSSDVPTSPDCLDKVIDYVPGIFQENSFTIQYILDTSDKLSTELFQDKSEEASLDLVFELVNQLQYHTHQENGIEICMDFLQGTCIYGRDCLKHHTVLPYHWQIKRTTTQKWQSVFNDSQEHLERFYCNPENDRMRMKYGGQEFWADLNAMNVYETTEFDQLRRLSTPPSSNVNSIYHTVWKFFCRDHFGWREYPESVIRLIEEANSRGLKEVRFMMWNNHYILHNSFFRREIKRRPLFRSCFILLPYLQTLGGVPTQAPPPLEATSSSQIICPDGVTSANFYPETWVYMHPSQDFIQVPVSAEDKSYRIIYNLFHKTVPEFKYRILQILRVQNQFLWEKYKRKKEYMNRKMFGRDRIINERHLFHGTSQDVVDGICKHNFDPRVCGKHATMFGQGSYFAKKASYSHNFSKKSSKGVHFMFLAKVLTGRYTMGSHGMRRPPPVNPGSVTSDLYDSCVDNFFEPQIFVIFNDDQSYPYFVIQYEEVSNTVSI
pEC50: −log10 of the molar value.
property-name: pEC50

{"compound-string": "N#Cc1ccc(N2CCN(C(=O)c3cc(Cc4n[nH]c(=O)c5ccccc45)ccc3F)CC2)nc1", "property-name": "pEC50", "result": "~7.22"}
